Target under test: Torsin-1A (Homo sapiens)
Assay overview: small-molecule binders of mutant TOR1A in lysate, primary screen, cell lysate, small-molecule microarray, COS7 lysate, 635/667 nm fluorescence (AID 1150);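 also: score pools 667 nm emission and signal to noise measuring lysate protein binding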
Condition parameters: COS7 hTOR1A mutant lysate, 635 nm fluorescence, higher = more signal
Measurement label: composite z-score
Kindly provide the number alone.

COCCOC(=O)N1C(=O)[C@@]2(c3cc(C#Cc4ccc(OC)cc4)ccc31)[C@H](C(=O)Nc1nc3ccccc3s1)[C@H]1C(=O)O[C@H](c3ccccc3)[C@H](c3ccccc3)N1[C@@H]2c1ccc(OCCO)cc1: 0.337
C[N+](C)(C)CCCCCCNC(=O)[C@H]1C[C@H]2C(=O)NCC(=O)N2[C@H]1c1ccc(O)cc1: 0.349

State measured composite z-score of the compound CCCCCCc1nc(C2CC2)cc2c1[Si](C(C)C)(C(C)C)O[C@H]2c1ccccc1 with Torsin-1A (Homo sapiens).
0.378

State measured composite z-score of the compound Cc1ccc(S[C@]2(C(=O)O)CC(=O)N(Cc3ccccc3Cl)[C@@H]2c2ccc(CO)cc2I)cc1 with Torsin-1A (Homo sapiens).
0.396

State measured composite z-score of the compound C=CCN1C(=O)[C@@]2(CCS(=O)(=O)c3ccccc3)N=C(c3ccc(OCCCO)cc3)O[C@H]2c2ccccc21 with Torsin-1A (Homo sapiens).
0.426
